molecular target: Gal(b1-4)GlcNAc(b1-2)[Gal(b1-4)GlcNAc(b1-6)]Man(a1-6)[GlcNAc(b1-4)][Gal(b1-4)GlcNAc(b1-2)[Gal(b1-4)GlcNAc(b1-4)]Man(a1-3)]Man(b1-4)GlcNAc(b1-4)[Fuc(a1-6)]GlcNAc; test: glycan array binding signal (z-score within array); higher = stronger binding; details: glycan notation: IUPAC condensed, linker removed
The sample as a whole holds a higher share of the strongest signals than the screen did.
This listing pairs binders with measured glycan array binding signal (z-score).
assayEndpoint: glycan array binding signal (z-score)

binder	observedValue
Cohesin-mDCIR (Macaca mulatta) (protein) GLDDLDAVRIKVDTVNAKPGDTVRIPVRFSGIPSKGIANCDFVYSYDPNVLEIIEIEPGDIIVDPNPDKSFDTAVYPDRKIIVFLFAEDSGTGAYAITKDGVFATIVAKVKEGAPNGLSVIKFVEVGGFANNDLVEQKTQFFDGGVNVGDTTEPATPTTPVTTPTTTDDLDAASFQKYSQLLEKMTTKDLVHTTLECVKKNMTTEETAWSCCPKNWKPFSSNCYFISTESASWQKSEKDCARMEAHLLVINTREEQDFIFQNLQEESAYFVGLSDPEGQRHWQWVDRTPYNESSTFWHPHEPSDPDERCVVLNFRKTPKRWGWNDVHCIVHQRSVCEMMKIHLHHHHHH	-0.425
GS13455A-bfa-343-25-343 (Bacteroides fragilis) (protein) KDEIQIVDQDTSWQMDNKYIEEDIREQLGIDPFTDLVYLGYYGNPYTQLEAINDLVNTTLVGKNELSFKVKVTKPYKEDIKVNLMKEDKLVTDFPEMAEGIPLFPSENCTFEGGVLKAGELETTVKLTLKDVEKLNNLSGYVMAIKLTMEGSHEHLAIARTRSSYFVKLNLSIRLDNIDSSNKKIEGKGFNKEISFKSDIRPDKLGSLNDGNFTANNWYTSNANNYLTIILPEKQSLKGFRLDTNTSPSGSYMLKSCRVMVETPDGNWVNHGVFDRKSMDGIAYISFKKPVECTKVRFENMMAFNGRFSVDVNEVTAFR	-0.04
HPA (Helix pomatia), Q575S3 (protein) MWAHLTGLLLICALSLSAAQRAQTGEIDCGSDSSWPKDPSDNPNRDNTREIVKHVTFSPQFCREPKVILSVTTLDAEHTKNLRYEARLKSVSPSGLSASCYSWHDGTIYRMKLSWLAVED	-0.252
AT3G44510(29) (Arabidopsis thaliana), F4J341 (protein) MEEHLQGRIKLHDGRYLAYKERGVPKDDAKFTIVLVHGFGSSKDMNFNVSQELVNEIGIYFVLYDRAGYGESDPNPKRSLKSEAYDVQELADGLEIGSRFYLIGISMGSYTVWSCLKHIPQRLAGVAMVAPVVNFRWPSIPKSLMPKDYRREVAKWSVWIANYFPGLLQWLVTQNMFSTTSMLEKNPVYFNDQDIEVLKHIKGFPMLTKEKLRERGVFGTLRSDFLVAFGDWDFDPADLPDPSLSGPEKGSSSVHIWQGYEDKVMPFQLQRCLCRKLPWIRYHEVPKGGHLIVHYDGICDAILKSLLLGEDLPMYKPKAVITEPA	-0.121
Threefoil (Haloarcula marismortui) (protein) GSSHHHHHHHHHHSSGLVPRGSHMGDGYYKLVARHSGKALDVENASTSDGANVIQYSYSGGDNQQWRLVDLGDGYYKLVARHSGKALDVENASTSDGANVIQYSYSGGDNQQWRLVDLGDGYYKLVARHSGKALDVENASTSDGANVIQYSYSGGDNQQWRLVDL	6.8
